test system: Anopheles stephensi; assay: Anopheles stephensi treated well plate contact test: knockdown and mortality; format: in vivo; conditions: test compound 20 ppm plus 2 ppm TFNA-AM, after 48 hours

{"compound": "CO/C=C(/C(=O)OC)c1ccccc1COc1cc(C(F)(F)F)nc(OC(C)C)n1 [Fluacrypyrim]", "test target": "Anopheles stephensi", "mortality % 48, with TFNA-AM, %": 100}
{"compound": "CN/C(=N\\[N+](=O)[O-])NCc1cnc(Cl)s1 [Clothianidin]", "test target": "Anopheles stephensi", "mortality % 48, with TFNA-AM, %": 100}
{"compound": "CCOC(=O)NCCOc1ccc(Oc2ccccc2)cc1 [Fenoxycarb]", "test target": "Anopheles stephensi", "mortality % 48, with TFNA-AM, %": 80}
{"compound": "CN(C(=O)c1ccccc1)c1cccc(C(=O)Nc2c(Br)cc(C(F)(C(F)(F)F)C(F)(F)F)cc2C(F)(F)F)c1F [Broflanilide]", "test target": "Anopheles stephensi", "mortality % 48, with TFNA-AM, %": 100}
{"compound": "N#Cc1nn(-c2c(Cl)cc(C(F)(F)F)cc2Cl)c(N)c1[S+]([O-])C(F)(F)F (centres unmarked) [Fipronil]", "test target": "Anopheles stephensi", "mortality % 48, with TFNA-AM, %": 100}
{"compound": "Cc1ccc(/N=C/N(C)/C=N/c2ccc(C)cc2C)c(C)c1 [Amitraz]", "test target": "Anopheles stephensi", "mortality % 48, with TFNA-AM, %": 40}
{"compound": "Cc1cc(C(F)(C(F)(F)F)C(F)(F)F)ccc1NC(=O)c1cccc(I)c1C(=O)NC(C)(C)CS(C)(=O)=O [Flubendiamide]", "test target": "Anopheles stephensi", "mortality % 48, with TFNA-AM, %": 40}
{"compound": "CO/C=C(/C(=O)OC)c1ccccc1Oc1cc(C(F)(F)F)ccn1 [Compound 49]", "test target": "Anopheles stephensi", "mortality % 48, with TFNA-AM, %": 90}

* * *

tested on: Anopheles stephensi; assay: Anopheles stephensi treated well plate contact test: knockdown and mortality; type: in vivo; conditions: test compound 200 ppm plus 2 ppm TFNA-AM, after 48 hours

{"compound": "CO/C=C(/C(=O)OC)c1ccccc1Oc1ncc(C(F)(F)F)s1", "mortality % 48, with TFNA-AM / %": 100}
{"compound": "O=C1C=C(N(Cc2ccc(Cl)nc2)CC(F)F)CO1", "mortality % 48, with TFNA-AM / %": 90}
{"compound": "CO/C=C(/C(=O)OC)c1ccccc1COc1cccc(C(F)(F)F)n1", "mortality % 48, with TFNA-AM / %": 100}
{"compound": "N#Cc1ccc(CC(=NNC(=O)Nc2ccc(OC(F)(F)F)cc2)c2cccc(C(F)(F)F)c2)cc1 (mixture of isomers)", "mortality % 48, with TFNA-AM / %": 100}
{"compound": "CCOc1cc(C(C)(C)C)ccc1C1COC(c2c(F)cccc2F)=N1 (stereo not shown)", "mortality % 48, with TFNA-AM / %": 80}
{"compound": "CO/C=C(/C(=O)OC)c1ccccc1COc1cc(C(F)(F)F)nc(OC(C)C)n1", "mortality % 48, with TFNA-AM / %": 100}
{"compound": "O=[N+]([O-])NC1=NCCN1Cc1ccc(Cl)nc1", "mortality % 48, with TFNA-AM / %": 100}
{"compound": "OC(c1ccc(Cl)cc1)(c1ccc(Cl)cc1)C(Cl)(Cl)Cl", "mortality % 48, with TFNA-AM / %": 100}
{"compound": "CO/C=C(/C(=O)OC)c1ccccc1Oc1cc(C(F)(F)F)ccn1", "mortality % 48, with TFNA-AM / %": 90}
{"compound": "CN/C(=N/CC1CCOC1)N[N+](=O)[O-] (stereo not shown)", "mortality % 48, with TFNA-AM / %": 100}
{"compound": "CO/C=C(/C(=O)OC)c1ccccc1Oc1nc(C(C)(C)C)ns1", "mortality % 48, with TFNA-AM / %": 100}
{"compound": "Cc1ccc(/N=C/N(C)/C=N/c2ccc(C)cc2C)c(C)c1", "mortality % 48, with TFNA-AM / %": 100}
{"compound": "CC(C)N1C(=O)N(c2ccccc2)CS/C1=N\\C(C)(C)C", "mortality % 48, with TFNA-AM / %": 40}
{"compound": "CC(COc1ccc(Oc2ccccc2)cc1)Oc1ccccn1 (stereo not shown)", "mortality % 48, with TFNA-AM / %": 80}
{"compound": "CN/C(=N\\[N+](=O)[O-])NCc1cnc(Cl)s1", "mortality % 48, with TFNA-AM / %": 100}
{"compound": "C/C=C(\\C)C(=O)O[C@H]1C[C@@H](OC(C)=O)[C@@]2(C(=O)OC)CO[C@H]3[C@@H](O)[C@@](C)([C@]45O[C@@]4(C)[C@H]4C[C@@H]5O[C@@H]5OC=C[C@@]54O)[C@H]4[C@]1(CO[C@]4(O)C(=O)OC)[C@@H]32", "mortality % 48, with TFNA-AM / %": 80}
{"compound": "CON=C(C(=O)OC)c1ccccc1CON=C(C)c1cccc(C(F)(F)F)c1", "mortality % 48, with TFNA-AM / %": 100}
{"compound": "Cc1cc(C(F)(C(F)(F)F)C(F)(F)F)ccc1NC(=O)c1cccc(I)c1C(=O)NC(C)(C)CS(C)(=O)=O [Flubendiamide]", "mortality % 48, with TFNA-AM / %": 40}
{"compound": "CCOC(=O)NCCOc1ccc(Oc2ccccc2)cc1", "mortality % 48, with TFNA-AM / %": 80}
{"compound": "CC(c1ccc(C(F)(F)F)nc1)S(C)(=O)=NC#N (stereo not shown)", "mortality % 48, with TFNA-AM / %": 100}
{"compound": "CCC(Nc1ncnc(C)c1Cl)c1ccc(OC(F)F)cc1 (stereo not shown)", "mortality % 48, with TFNA-AM / %": 100}
{"compound": "O=c1c(-c2cccc(C(F)(F)F)c2)c([O-])[n+](Cc2cncnc2)c2ccccn12", "mortality % 48, with TFNA-AM / %": 100}
{"compound": "CC(C)c1cc(Oc2ccccc2)cc(C(C)C)c1NC(=S)NC(C)(C)C", "mortality % 48, with TFNA-AM / %": 100}
{"compound": "O=[N+]([O-])c1cc(C(F)(F)F)c(Cl)c([N+](=O)[O-])c1Nc1ncc(C(F)(F)F)cc1Cl", "mortality % 48, with TFNA-AM / %": 100}
{"compound": "Nc1nc(N)nc(NC2CC2)n1", "mortality % 48, with TFNA-AM / %": 40}
{"compound": "CN1COCN(Cc2cnc(Cl)s2)/C1=N\\[N+](=O)[O-]", "mortality % 48, with TFNA-AM / %": 100}
{"compound": "CCc1nn(C)c(C(=O)NCc2ccc(C(C)(C)C)cc2)c1Cl", "mortality % 48, with TFNA-AM / %": 100}
{"compound": "CN(C(=O)c1ccccc1)c1cccc(C(=O)Nc2c(Br)cc(C(F)(C(F)(F)F)C(F)(F)F)cc2C(F)(F)F)c1F [Broflanilide]", "mortality % 48, with TFNA-AM / %": 100}
